- Tested on: L. amazonensis LV78 amastigotes
- protocol_summary: Anti-amastigote activity in infected PEM, L. amazonensis LV78
- Assay type: cell-based
- condition_info: Leishmania amazonensis, 72 h; infected PEM, 3 days, Giemsa
pIC50: −log10 of the molar value.
reported_metric: pIC50

// worked examples, pIC50 included
O=c1cc(-c2ccc(OCCC3CCN(Cc4ccncc4)CC3)cc2)oc2ccccc12 : 5.39
O=c1cc(-c2ccc(OCCOCCN(Cc3ccc4ccccc4n3)Cc3ccc4ccccc4n3)cc2)oc2ccccc12 [FM09l] : 5.52
COc1ccnc(CN2CCN(CCOc3ccc(-c4cc(=O)c5ccccc5o4)cc3)CC2)c1OC [FM01b] : 5.62
O=c1cc(-c2ccc(OCCOCCN(CCOCCOc3ccc(-c4cc(=O)c5ccccc5o4)cc3)Cc3ccncc3)cc2)oc2ccccc12 : 6.37
COc1c(C)cnc(CN(CCOCCOc2ccc(-c3cc(=O)c4ccccc4o3)cc2)Cc2ncc(C)c(OC)c2C)c1C [FM09i] : 6.57
CCCCCCCCCCCCCCCCOP(=O)([O-])OCC[N+](C)(C)C [Miltefosine, reference compound] : 4.49
O=c1cc(-c2ccc(OCCOCCN(Cc3ccccc3)Cc3ccccc3)cc2)oc2ccccc12 : 5.89
O=c1cc(-c2ccc(OCCOCCNCc3ccccn3)cc2)oc2ccccc12 [FM09m] : 5.35
COc1ccnc(CN(CCOCCOc2ccc(-c3cc(=O)c4ccccc4o3)cc2)Cc2nccc(OC)c2OC)c1OC [FM09a] : 6.25
COCCCOc1ccnc(CN(CCOCCOc2ccc(-c3cc(=O)c4ccccc4o3)cc2)Cc2nccc(OCCCOC)c2C)c1C [FM09k] : 6.49

a = N=C(N)c1ccc(OCCCCCOc2ccc(C(=N)N)cc2)cc1
b = O=c1cc(-c2ccc(OCCN3CCN(Cc4ccncc4)CC3)cc2)oc2ccccc12
Ask: Returns: the label, a or b , whose recorded pIC50 is the lower number. Reply with the label of the item you choose.
Result: a

====

- Test system: L. donovani Ld39 amastigotes (SSG-resistant)
- protocol_summary: Anti-amastigote activity in infected PEM, L. donovani Ld39
- Type: cell-based
- condition_info: Leishmania donovani, 72 h; infected PEM, 3 days, Giemsa; SSG-resistant
reported_metric: pIC50
The value called pIC50 is obtained by taking minus log10 of the concentration in mol/L.

Check out these entries, answers already filled in.
O=c1cc(-c2ccc(OCCN3CCCN(Cc4ccncc4)CC3)cc2)oc2ccccc12 : 5.08
NC[C@@H]1O[C@H](O[C@H]2[C@@H](O)[C@H](O[C@@H]3[C@@H](O)[C@H](N)C[C@H](N)[C@H]3O[C@H]3O[C@H](CO)[C@@H](O)[C@H](O)[C@H]3N)O[C@@H]2CO)[C@H](N)[C@@H](O)[C@@H]1O [Paromomycin, reference compound] : 4.39

In the following, a different compound is considered.
Ask: Please tell me: pIC50 of O=c1cc(-c2ccc(OCCOCCN(CCOCCOc3ccc(-c4cc(=O)c5ccccc5o4)cc3)Cc3ccncc3)cc2)oc2ccccc12 , system L. donovani Ld39 amastigotes (SSG-resistant)?
Result: 6.68

====

- Test system: L. amazonensis LV78 promastigotes
- protocol_summary: Anti-promastigote activity (MTS assay), L. amazonensis LV78
- Format: cell-based
- condition_info: Leishmania amazonensis, 72 hours
reported_metric: IC50 (µM)

Some solved cases for reference:
O=c1cc(-c2ccc(OCCOCCNCc3ccccc3)cc2)oc2ccccc12 : 2.8
O=c1cc(-c2ccc(OCCN3CCN(Cc4ccncc4)CC3)cc2)oc2ccccc12 : 6
COc1c(C)cnc(CN(CCOCCOc2ccc(-c3cc(=O)c4ccccc4o3)cc2)Cc2ncc(C)c(OC)c2C)c1C [FM09i] : 0.08

I = O=C(COc1ccc(-c2cc(=O)c3ccccc3o2)cc1)N1CCNCC1
II = O=c1cc(-c2ccc(OCCC3CCCCN3Cc3ccncc3)cc2)oc2ccccc12 (stereo not drawn)
III = O=c1cc(-c2ccc(OC[C@@H]3CCCN3Cc3ccncc3)cc2)oc2ccccc12
Ask: Order the items by recorded IC50; the first position goes to the largest value. Give your ranking as a list of the labels in the requested order.
Result: I, III, II

====

- protocol_summary: Pharmacokinetics of FM05 hydrochloride salt, oral
- Format: in vivo, Balb/c mice
- condition_info: male, Balb/c, mouse, plasma, po, 42 mg/kg, oral, saline, read-out: Half-life (Elimination)
reported_metric: half-life (h)
Write the answer as a number in h, unit excluded.

Ask: Recorded half-life of O=c1cc(-c2ccc(OCCC3CCN(Cc4ccncc4)CC3)cc2)oc2ccccc12 , please.
Result: 3.37

====

- System: L. amazonensis LV78 amastigotes
- protocol_summary: Anti-amastigote activity in infected PEM, L. amazonensis LV78
- Format: cell-based
- condition_info: Leishmania amazonensis, 72 h; infected PEM, 3 days, Giemsa
reported_metric: IC50 (µM)

// known answers, use as guide
O=c1cc(-c2ccc(OCCOCCNCc3ccncc3)cc2)oc2ccccc12 [FM08] : 6.7
O=c1cc(-c2ccc(OCCN3CCCN(Cc4ccncc4)CC3)cc2)oc2ccccc12 [FM14] : 1.9
Cc1cccc(CN(CCOCCOc2ccc(-c3cc(=O)c4ccccc4o3)cc2)Cc2cccc(C)n2)n1 [FM09e] : 2.4
O=c1cc(-c2ccc(OC[C@@H]3CCCN3Cc3ccncc3)cc2)oc2ccccc12 [FM18] : 3.1
COc1ccnc(CN2CCC(CCOc3ccc(-c4cc(=O)c5ccccc5o4)cc3)CC2)c1OC [FM05b] : 0.3
O=C(COc1ccc(-c2cc(=O)c3ccccc3o2)cc1)N1CCNCC1 [FM10] : 6
O=c1cc(-c2ccc(OCCN3CCN(Cc4ccccn4)CC3)cc2)oc2ccccc12 [FM01a] : 8.74

1 = O=C(COc1ccc(-c2cc(=O)c3ccccc3o2)cc1)N1CCCNCC1 [FM11]
2 = CN(CCOc1ccc(-c2cc(=O)c3ccccc3o2)cc1)CCN(C)Cc1ccncc1 [FM02]
Ask: Identify the entry with the smaller IC50: 1 or 2 . Use the label to indicate which entry you chose.
Result: 2

====

- Tested on: peritoneal elicited macrophages (PEM)
- protocol_summary: Cytotoxicity, peritoneal elicited macrophages (PEM)
- Type: cell-based, mouse
- condition_info: mouse
reported_metric: IC50

Ask: What is its IC50 for peritoneal elicited macrophages (PEM)? Entry: O=c1cc(-c2ccc(OCCOCCN(CCOCCOc3ccc(-c4cc(=O)c5ccccc5o4)cc3)Cc3ccncc3)cc2)oc2ccccc12
Result: > 88 µM

====

- Tested on: RAW264.7 cells
- protocol_summary: Reactive oxygen species (ROS) level, DCFDA, RAW264.7
- Type: cell-based, murine
- condition_info: 10 μM, 8 hr
- Experimental: 50,000 RAW264.7 were seeded in each well of black 96-well plates overnight. Next day, RAW264.7 cells were pre-loaded with 10 μM dichlorofluorescein diacetate (DCFDA) (Abcam) for 1 hr at 37° C. with 5% CO2. A control of non-DCFDA stained cells was also included. The DCFDA-contained supplemented DMEM media was removed. […] The ROS level was determined at different periods of time including 2, 4, 6, 8, 20, 46 and 72 hr using microplate reader (excitation: 485 nm and emission: […]). […]
Catalogue of RAW264.7 ROS Level, Relative fold (RF) readings, one per entry.
Please respond with the number in fold and leave the unit unwritten.

Worked set:
CC(C)(C)OO [tert-butyl hydroperoxide] : 1.9
C[C@@H]1[C@H](O)[C@@H](C)/C=C/C=C/C=C/C=C/C=C/C=C/C=C/[C@H](O[C@@H]2O[C@H](C)[C@@H](O)[C@H](N)[C@@H]2O)C[C@@H]2O[C@](O)(C[C@@H](O)C[C@@H](O)[C@H](O)CC[C@@H](O)C[C@@H](O)CC(=O)O[C@H]1C)C[C@H](O)[C@H]2C(=O)O : 1.2
N=C(N)c1ccc(OCCCCCOc2ccc(C(=N)N)cc2)cc1 : 0.8
O=c1cc(-c2ccc(OCCOCCN(Cc3ccccn3)Cc3ccccn3)cc2)oc2ccccc12 : 1.0

Now look at this one.
Ask: Find the recorded RAW264.7 ROS Level, Relative fold (RF) belonging to O=c1cc(-c2ccc(OCCOCCN(CCOCCOc3ccc(-c4cc(=O)c5ccccc5o4)cc3)Cc3ccncc3)cc2)oc2ccccc12 and report it.
Result: 0.8

====

- Tested on: L. donovani Ld39 amastigotes (SSG-resistant)
- protocol_summary: Anti-amastigote activity in infected PEM, L. donovani Ld39
- Type: cell-based
- condition_info: IC50 RAW264.7 over IC50 L. donovani Ld39 amastigotes
Recorded Selective index (a)/(c) values for a group of compounds are listed next.

Record excerpt, results attached:
O=C(COc1ccc(-c2cc(=O)c3ccccc3o2)cc1)N1CCN(C(=O)c2ccncc2)CC1 : >17.5
O=c1cc(-c2ccc(OCC3CCN(Cc4ccncc4)CC3)cc2)oc2ccccc12 : >33
CCCCCCCCCCCCCCCCOP(=O)([O-])OCC[N+](C)(C)C [Miltefosine, reference compound] : 1.3

As a next step, examine the compound that follows.
Ask: Find the recorded Selective index (a)/(c) belonging to O=c1cc(-c2ccc(OCCC3CCN(Cc4ccncc4)CC3)cc2)oc2ccccc12 and report it.
Result: <3.7

Values from patent US10111854B2
